# measurement.target: wild-type human melanocortin 4 receptor (WT-hMC4R) (Homo sapiens, UniProt P32245)
# Construct: cDNA from UMR cDNA resource center
# Sequence (P32245 whole entry): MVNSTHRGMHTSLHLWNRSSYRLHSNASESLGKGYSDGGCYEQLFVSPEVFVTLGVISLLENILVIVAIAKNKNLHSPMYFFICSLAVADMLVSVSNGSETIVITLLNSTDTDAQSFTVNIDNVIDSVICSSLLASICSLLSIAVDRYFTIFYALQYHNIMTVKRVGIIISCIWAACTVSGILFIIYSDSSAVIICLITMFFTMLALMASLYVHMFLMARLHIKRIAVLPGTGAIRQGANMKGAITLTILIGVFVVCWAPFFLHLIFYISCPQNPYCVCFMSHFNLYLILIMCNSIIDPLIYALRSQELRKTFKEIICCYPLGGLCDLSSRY
# experimental.details: Cyclic AMP assay (HTRF), antagonist competition against NDP-α-MSH
# conditions.used: HEK293T cells expressing double-tagged WT-hMC4R; cAMP accumulation; 1 hour compound then 4 nM NDP-α-MSH 30 min
pIC50: −log10 of the molar value.
test.readout: pIC50

- compound: "COC(=O)c1ccc(-c2nn3ccc(C(=O)N(CCC(C)C)CCC(C)C)cc3c2/C=C/CN2CCCCC2)cc1"
  obs.value: "6.00 to 6.30"
- compound: "CCCCN(CCCC)C(=O)c1ccn2nc(-c3cc(OC)c(OC)c(OC)c3)c(/C=C/CN3CCCCC3)c2c1"
  obs.value: "6.00 to 6.30"
- compound: "COc1ccc(-c2nn3ccc(C(=O)N(CCC(C)C)CCC(C)C)cc3c2/C=C/CN2CCCC(F)C2)cc1 (stereo not drawn)"
  obs.value: "5.30 to 6.00"
- compound: "CCCCCN(CCCCC)C(=O)c1ccn2nc(-c3ccc(OC)cc3)c(CCCN3CCCCC3)c2c1"
  obs.value: "5.30 to 6.00"
- compound: "CC(C)CCN(CCC(C)C)C(=O)c1ccn2nc(-c3ccccc3Br)c(/C=C/CN3CCCCC3)c2c1"
  obs.value: "5.30 to 6.00"

# per-item lookup of pIC50; items listed below
1. CC(C)CCN(CCC(C)C)C(=O)c1ccn2nc(-c3cccc(C(=O)O)c3)c(CCCN3CCCCC3)c2c1
2. Cc1ccc(-c2nn3ccc(C(=O)N(CCC(C)C)CCC(C)C)cc3c2CCCN2CCCCC2)cc1
3. COc1ccc(-c2nn3ccc(C(=O)N(CCC(C)C)CCC(C)C)cc3c2/C=C/CN2CCCCCC2)cc1
4. CCOc1ccc(-c2nn3ccc(C(=O)N(CCC(C)C)CCC(C)C)cc3c2/C=C/CN2CCOCC2)cc1

Out:
["5.30 to 6.00", "> 6.30", "5.30 to 6.00", "4.82 to 5.30"]

# per-item lookup of pIC50; items listed below
1. CC(C)CCN(CCC(C)C)C(=O)c1ccn2nc(-c3ccc(O)cc3)c(CCCN3CCCCC3)c2c1
2. CC(C)CCN(CCC(C)C)C(=O)c1ccn2nc(-c3ccc(C#N)cc3)c(CCCN3CCCCC3)c2c1
3. CC(C)CCN(CCC(C)C)C(=O)c1ccn2nc(-c3cccc(-c4nnn[nH]4)c3)c(CCCN3CCCCC3)c2c1

Out:
1: > 6.30; 2: > 6.30; 3: 6.00 to 6.30

---

Answer each item with its documented pIC50.
# measurement.target: wild-type human melanocortin 4 receptor (WT-hMC4R) (Homo sapiens, UniProt P32245)
# Construct: cDNA from UMR cDNA resource center
# experimental.details: Cyclic AMP assay (HTRF), antagonist competition against NDP-α-MSH
# conditions.used: HEK293T cells expressing double-tagged WT-hMC4R; cAMP accumulation; 1 hour compound then 4 nM NDP-α-MSH 30 min
pIC50: −log10 of the molar value.

Some entries whose results are on file:
- molecule: "COc1ccc(Cl)cc1-c1nn2ccc(C(=O)N(CCC(C)C)CCC(C)C)cc2c1CCCN1CCCCC1 [Example 114]"
  measurement.target: "wild-type human melanocortin 4 receptor (WT-hMC4R) (Homo sapiens, UniProt P32245)"
  pIC50: "5.30 to 6.00"
- molecule: "CC(C)CCN(CCC(C)C)C(=O)c1ccn2nc(-c3ccccc3)c(CCCN3CCCCC3)c2c1 [Example 55]"
  measurement.target: "wild-type human melanocortin 4 receptor (WT-hMC4R) (Homo sapiens, UniProt P32245)"
  pIC50: "5.30 to 6.00"
- molecule: "CN=C(c1ccn2nc(-c3ccccc3)c(CCCN3CCCCC3)c2c1)N(CCC(C)C)CCC(C)C [Example 165]"
  measurement.target: "wild-type human melanocortin 4 receptor (WT-hMC4R) (Homo sapiens, UniProt P32245)"
  pIC50: "> 6.30"
- molecule: "CC(C)CCN(CCC(C)C)C(=O)c1ccn2nc(-c3cccc(Br)c3)c(/C=C/CN3CCCCC3)c2c1 [Example 28]"
  measurement.target: "wild-type human melanocortin 4 receptor (WT-hMC4R) (Homo sapiens, UniProt P32245)"
  pIC50: "5.30 to 6.00"
- molecule: "Cc1nc(-c2ccc(-c3nn4ccc(C(=O)N(CCC(C)C)CCC(C)C)cc4c3CCCN3CCCCC3)cc2)no1 [Example 135]"
  measurement.target: "wild-type human melanocortin 4 receptor (WT-hMC4R) (Homo sapiens, UniProt P32245)"
  pIC50: "> 6.30"

# per-item lookup of pIC50; items listed below
1. CCOc1ccc(-c2nn3ccc(C(=O)N(CCC(C)C)CCC(C)C)cc3c2/C=C/CN2CCC(C(F)(F)F)CC2)cc1 [Example 81]
2. COc1ccc(Cl)cc1-c1nn2ccc(C(=O)N(CCC(C)C)CCC(C)C)cc2c1-c1ccc(CN2CCCCC2)cc1 [Example 137]

Out:
["4.82 to 5.30", "5.30 to 6.00"]

# per-item lookup of pIC50; items listed below
1. CCCCN(CCCC)C(=O)c1ccn2nc(-c3ccccc3)c(CCCN3CCCCC3)c2c1 [Example 54]
2. CC(C)CCN(CCC(C)C)C(=O)c1ccn2nc(-c3ccc(C(N)=O)cc3)c(CCCN3CCCCC3)c2c1 [Example 95]
3. CC(C)CCN(CCC(C)C)C(=O)c1ccn2nc(-c3ccc(/C(N)=N/O)cc3)c(CCCN3CCCCC3)c2c1 [Example 102]
4. COc1ccc(-c2nn3ccc(C(=O)N(CCC4CC4)CCC4CC4)cc3c2CCCN2CCCCC2)cc1 [Example 130]

Out:
["6.00 to 6.30", "> 6.30", "> 6.30", "6.00 to 6.30"]

# per-item lookup of pIC50; items listed below
1. CCCCN(CCCC)C(=O)c1ccn2nc(-c3cc(OC)cc(OC)c3)c(/C=C/CN3CCCCC3)c2c1 [Example 85]
2. CC(C)CCN(CCC(C)C)C(=O)c1ccn2nc(-c3ccc(C(=O)O)cc3)c(CCCN3CCCCC3)c2c1 [Example 75]
3. CC(C)CCN(CCC(C)C)C(=O)c1ccn2nc(-c3ccc(C(C)(C)C)cc3)c(/C=C/CN3CCCCC3)c2c1 [Example 5]
4. CCCCN(CCCC)C(=O)c1ccn2nc(-c3ccc(C)cc3)c(CCCN3CCCCC3)c2c1 [Example 60]

Out:
["6.00 to 6.30", "5.30 to 6.00", "5.30 to 6.00", "6.00 to 6.30"]

---

# measurement.target: wild-type human melanocortin 4 receptor (WT-hMC4R) (Homo sapiens)
# Construct: cDNA from UMR cDNA resource center
# experimental.details: Cyclic AMP assay (HTRF), antagonist competition against NDP-α-MSH
# conditions.used: HEK293T cells expressing double-tagged WT-hMC4R; cAMP accumulation; 1 hour compound then 4 nM NDP-α-MSH 30 min
test.readout: IC50

Some entries whose results are on file:
- smiles.data: "COc1cc(OC)cc(-c2nn3ccc(C(=O)N(CCC(C)C)CCC(C)C)cc3c2CCCN2CCCCC2)c1"
  obs.value: "< 500 nM"
- smiles.data: "COc1ccc(-c2nn3ccc(N(CCC(C)C)CCC(C)C)cc3c2CCCN2CCCCC2)cc1"
  obs.value: "5000 to 15000 nM"
- smiles.data: "CC(C)CCN(CCC(C)C)C(=O)c1ccn2nc(-c3cccc(Cl)c3)c(CCCN3CCCCC3)c2c1"
  obs.value: "< 500 nM"
- smiles.data: "CC(C)CCN(CCC(C)C)C(=O)c1ccn2nc(-c3ccc(-c4noc(C(F)(F)F)n4)cc3)c(CCCN3CCCCC3)c2c1"
  obs.value: "1000 to 5000 nM"
- smiles.data: "CC(=O)c1ccc(-c2nn3ccc(C(=O)N(CCC(C)C)CCC(C)C)cc3c2CCCN2CCCCC2)cc1"
  obs.value: "500 to 1000 nM"

# per-item lookup of IC50; items listed below
1. COc1cc(OC)cc(-c2nn3ccc(C(=O)N(CCC(C)C)CCC(C)C)cc3c2/C=C/CN2CCCCC2)c1
2. COc1ccc(-c2nn3ccc(C(=O)N(CCC(C)C)CCC(C)C)nc3c2CCCN2CCCC2)cc1
3. COc1ccc(Cl)cc1-c1nn2ccc(C(=O)N(CCC(C)C)CCC(C)C)cc2c1CCCN1CCCC1

Out:
["< 500 nM", "5000 to 15000 nM", "1000 to 5000 nM"]

# per-item lookup of IC50; items listed below
1. CC(=O)c1ccccc1-c1nn2ccc(C(=O)N(CCC(C)C)CCC(C)C)cc2c1CCCN1CCCCC1
2. Cc1ccc(-c2nn3ccc(C(=O)N(CCC(C)C)CCC(C)C)cc3c2/C=C/CN2CCCCC2)cc1
3. CCOC(=O)c1ccc(NC(=O)c2nn3ccc(C(=O)N(CCC(C)C)CCC(C)C)cc3c2/C=C/CN2CCCCC2)cc1
4. CC(C)CCN(CCC(C)C)C(=O)c1ccn2nc(-c3ccc(Cl)cc3)c(CCCN3CCCCC3)c2c1
5. CC(C)CCN(CCC(C)C)C(=O)c1ccn2nc(-c3ccc(C(=O)O)cc3)c(/C=C/CN3CCCCC3)c2c1

Out:
1. 1000 to 5000 nM
2. < 500 nM
3. 1000 to 5000 nM
4. 1000 to 5000 nM
5. 1000 to 5000 nM

# per-item lookup of IC50; items listed below
1. CC(C)CCN(CCC(C)C)C(=O)c1ccn2nc(-c3ccc(Br)cc3)c(/C=C/CN3CCCCC3)c2c1
2. CC(C)CCN(CCC(C)C)C(=O)c1ccn2nc(-c3cccc(C(N)=O)c3)c(/C=C/CN3CCCCC3)c2c1

Out:
1. 1000 to 5000 nM
2. < 500 nM
